Tested on: Cryptococcus neoformans
Experimental Details: Ratio of compound MIC for Cryptococcus neoformans ATCC 62066 in presence of amphotericin B to compound MIC for Cryptococcus neoformans ATCC 62066 in absence of amphotericin B by checkerboard microtiter test
Type: functional
Reported fractional inhibitory concentration index (FICI) values for the following compounds.
Measure Name: fractional inhibitory concentration index (FICI)

| Structure String | Readout Number |
| --- | --- |
| COc1ccc(-c2csc(N/N=C(\C)CCO)n2)cc1 | 2.58 |
| c1ccc(-c2csc(NN=C3CCCC3)n2)cc1 | 3.06 |
| COc1ccc(-c2csc(N/N=C/C3CCCCC3)n2)cc1 | 2.58 |
| C(=N\Nc1nc(-c2ccccc2)cs1)/C1CCCCC1 | 2.47 |

These data points were gathered from ChEMBL document CHEMBL3616437.
